- MEASUREMENT PROTOCOL: Toxicity against brine shrimp larvae assessed as mortality at 100 ug/mL after 24 hrs by binocular microscopic analysis relative to control
- Assay type: organism-based
- CONDITION PARAMETERS: artemia salina, in vivo
Consider the following compounds; for each one, report its mortality at 24 h, 100 ug/mL.
Numbers only, in %.

Some solved cases for reference:
>>> df
                                   compound  experimental_value
0  COc1ccc2c(c1)CCC1=C2N=C2SC(S(N)(=O)=O)=NN2C1c1ccc(OC)c(OC)c1 (centres undefined)                63.3
1  N#CC1C(=O)N=C2SC(S(N)(=O)=O)=NN2C1c1ccc(Cl)cc1 (centres undefined)                36.6
2  Cc1ccc(/N=N/c2c(N)n3nc(S(N)(=O)=O)sc3nc2=O)cc1                96.6

Quick request: mortality at 24 h, 100 ug/mL for each listed item, please.
1. Nc1c(/N=N/c2ccc(Br)cc2)c(=O)nc2sc(S(N)(=O)=O)nn12
2. COc1ccc(/C=C2\C(=O)N=C3SC(S(N)(=O)=O)=NN32)cc1OC
3. N#Cc1cnc2sc(S(N)(=O)=O)nn2c1=N
4. N#Cc1cnc2sc(S(N)(=O)=O)nn2c1=O
5. NS(=O)(=O)C1=NN2C(=NC(=O)/C2=C\c2ccc(Br)cc2)S1
6. CCOC(=O)C1C(=O)N=C2SC(S(N)(=O)=O)=NN2C1c1ccc(N(C)C)cc1 (centres undefined)

**Result**
[66.6, 76.6, 80, 70, 40, 83.3]

---

I'd appreciate it if you could supply LC50 at 24 h values for the items below.
- MEASUREMENT PROTOCOL: Toxicity against brine shrimp larvae assessed as mortality after 24 hrs by binocular microscopic analysis
- Assay type: organism-based
- CONDITION PARAMETERS: artemia salina, in vivo
Numbers only, in µg/mL.

>>> df
                                   molecule       readout  experimental_value
0  COc1ccc2c(c1)CCC1=C2N=C2SC(S(N)(=O)=O)=NN2C1c1ccc(Cl)cc1 (centres undefined)  LC50 at 24 h                 438
1                   O=c1[nH]cc(F)c(=O)[nH]1  LC50 at 24 h                 409
2  Nc1c(/N=N/c2ccc(Br)cc2)c(=O)nc2sc(S(N)(=O)=O)nn12  LC50 at 24 h                 460
3  COc1ccc2c(c1)CCC1=C2N=C2SC(S(N)(=O)=O)=NN2C1c1ccc(OC)c(OC)c1 (centres undefined)  LC50 at 24 h                 455
4  CN(C)c1ccc(C2C(C#N)C(=O)N=C3SC(S(N)(=O)=O)=NN32)cc1 (centres undefined)  LC50 at 24 h                 400

// each listed molecule needs a value for LC50 at 24 h
1. NS(=O)(=O)C1=NN2CCC(=O)N=C2S1
2. CCOC(=O)C1C(=O)N=C2SC(S(N)(=O)=O)=NN2C1c1ccc(N(C)C)cc1 (centres undefined)
3. COc1ccc(/N=N/c2c(N)n3nc(S(N)(=O)=O)sc3nc2=O)cc1
4. N#Cc1cnc2sc(S(N)(=O)=O)nn2c1=N
5. Cc1ccc(/N=N/c2c(N)n3nc(S(N)(=O)=O)sc3nc2=O)cc1
6. N#Cc1cnc2sc(S(N)(=O)=O)nn2c1=O
7. N#CC1C(=O)N=C2SC(S(N)(=O)=O)=NN2C1c1ccc(Cl)cc1 (centres undefined)

**Result**
1. 399
2. 405
3. 404
4. 419
5. 392
6. 432
7. 660

# batch size: 7; output LC50 at 24 h per entry
1. COc1ccc(C2C(C#N)C(=O)N=C3SC(S(N)(=O)=O)=NN32)cc1OC (centres undefined)
2. NS(=O)(=O)C1=NN2C(=O)c3ccccc3NC(c3ccsc3)/N=C\2S1 (centres undefined)
3. NS(=O)(=O)C1=NN2C(=NC(=O)/C2=C\c2ccc(Br)cc2)S1
4. Nc1c(/N=N/c2ccccc2)c(=O)nc2sc(S(N)(=O)=O)nn12
5. CCOC(=O)C1C(=O)N=C2SC(S(N)(=O)=O)=NN2C1c1ccc(OC)c(OC)c1 (centres undefined)
6. CCOC(=O)C1C(=O)N=C2SC(S(N)(=O)=O)=NN2C1c1ccc(Cl)cc1 (centres undefined)
7. COc1ccc(/C=C2\C(=O)N=C3SC(S(N)(=O)=O)=NN32)cc1OC

**Result**
[598, 477, 551, 419, 442, 508, 425]

Value source: ChEMBL document CHEMBL2375302
